- Tested on: NCI-H522 lung
- PROTOCOL_DESCRIPTION: NCI tumour cell line growth inhibition, 48 h

COMPOUND: COc1cccc(NC(=O)CC(=O)N2N=C(C)C(N=Nc3ccc(C(=O)O)cc3)C2=O)c1 (stereo not drawn)
TGI: > 100 µM
//
COMPOUND: O=P(O)(O)C=C=C1CCCCC1
TGI: > 100 µM
//
COMPOUND: N#Cc1c(N2CCN(c3ccc([N+](=O)[O-])cc3)CC2)[n+](=O)c2ccc(-c3ccc([N+](=O)[O-])cc3)cc2n1[O-]
TGI: > 100 µM

====

- System: IGROV1 ovarian
- PROTOCOL_DESCRIPTION: NCI tumour cell line growth inhibition, 48 h; in the data active = GI50 below about 0.43 µM; inactive = the rest
Possible outcomes: active, inactive

CHEMICAL_STRUCTURE: CCCCCCNC(=O)Oc1ccc(/C(=C(/C)Cc2ccc(OC)cc2)c2ccc(OCCN(C)C)cc2)cc1
CLASS: inactive

CHEMICAL_STRUCTURE: CC[C@@]12C=CCN3CC[C@]4(c5cc(NC(=O)COc6cc(OCC(=O)Nc7cc8c(cc7OC)N(C)[C@H]7[C@@](O)(C(=O)OC)[C@H](OC(C)=O)[C@]9(CC)C=CCN%10CC[C@]87[C@@H]%109)cc7oc(-c8ccccc8)cc(=O)c67)c(OC)cc5N(C)[C@@H]4[C@](O)(C(=O)OC)[C@H]1OC(C)=O)[C@H]32
CLASS: inactive

CHEMICAL_STRUCTURE: C/C(=N\NC(=S)N1CCN(c2ccccn2)CC1)c1nccs1
CLASS: active

CHEMICAL_STRUCTURE: C[C@]12CC[C@@H](OC(=O)N(CCCl)N=O)C[C@@H]1CC[C@@H]1[C@@H]2CC[C@]2(C)C(=O)CC[C@@H]12
CLASS: inactive

CHEMICAL_STRUCTURE: CCCCN(CC)c1ncnc2ccc(Br)cc12
CLASS: inactive

====

- Test system: SR leukemia
- PROTOCOL_DESCRIPTION: NCI tumour cell line growth inhibition, 48 h

MOLECULE: CC1(O)CCC2(C)C(=O)C1(C)CCC21OCCO1 (configuration not stated)
TGI: > 100 µM
--
MOLECULE: CC(=O)c1cccc(-c2cccc(-c3ccn(CCN4CCOCC4)n3)c2)c1
TGI: > 20 µM
--
MOLECULE: CC(C(=O)O)c1ccc(-c2ccccc2)c(F)c1 (configuration not stated)
TGI: > 100 µM
--
MOLECULE: CCN1CCCn2c(=O)[nH]c3cc(Br)cc1c32
TGI: > 100 µM
--
MOLECULE: O=C1C(Cl)=C(c2ccc([N+](=O)[O-])cc2)C(=O)c2c(O)cccc21
TGI: > 100 µM
--
MOLECULE: COc1cc2c(cc1OC)C(=O)/C(=C/c1ccc(O)cc1)CC2
TGI: > 10 µM
--
MOLECULE: COC1(OC)C=CC(=O)C=C1
TGI: > 100 µM

====

- Test system: SF-295 CNS
- PROTOCOL_DESCRIPTION: NCI tumour cell line growth inhibition, 48 h
MEASURED_ATTRIBUTE: TGI

COMPOUND: Cc1cc(=O)oc2cc(OC(=O)N(CCCl)CCCl)ccc12
ENDPOINT_RESULT: > 100 µM
--
COMPOUND: O=C(O)CCSC1=NCCN1
ENDPOINT_RESULT: > 100 µM
--
COMPOUND: CS(=O)(=O)[O-].CS(=O)(=O)[O-].NC1CCCCC1N.[Pt+4] (stereo not given)
ENDPOINT_RESULT: > 100 µM
--
COMPOUND: O=[N+]([O-])c1cc(F)ccc1Sc1ccccc1
ENDPOINT_RESULT: > 10 µM
--
COMPOUND: CN1c2ccccc2S(=O)(=O)n2c(CCc3ccccc3)nnc21
ENDPOINT_RESULT: > 100 µM
